Test system: receptor labeled by the radioiodinated analogue of 1 (4, [125I]-YLFQPQRF-NH2); neuropeptide FF receptor
Assay: Competitive radioligand binding against 4 ([125I]Y8F-amide)
Details: mixture-based positional scanning; difference from averaged radioligand displacement of whole library (0); about 80 a.u. = 10-fold change in Ki
From the text: Additionally, three-dimensional (3-D) molecular models of the known smaller-size neuropeptide FF antagonists 3 and 3a were constructed and their low-energy conformations were obtained in the AMBER force-field [Weiner, et al., J. Comput. Chem. 1986, 7, […].] by molecular dynamics calculations involving simulated annealing. A semi-empirical quantum chemical method with the PM3 parameterization [Stewart, J. Comput. Chem. 1989, 10, 209-220.] was used for the final geometry optimization. […]
Peptide text beside a SMILES is read from it. * marks the point of attachment. Dansyl = CN(C)c1cccc2c(S(=O)(=O)*)cccc12
measurement_label: Relative Binding Index (RBI) (a.u.)

CN(C)c1cccc2c(S(=O)(=O)N[C@@H](Cc3c[nH]cn3)C(=O)N[C@@H](Cc3c[nH]cn3)C(=O)N[C@@H](CCCNC(=N)N)C(N)=O)cccc12 [Dansyl-HHR-amide] (Dansyl-His-His-Arg-NH2) ... 11

1 = CN(C)c1cccc2c(S(=O)(=O)N[C@@H](Cc3c[nH]c4ccccc34)C(=O)N[C@@H](CC(N)=O)C(=O)N[C@@H](CCCNC(=N)N)C(N)=O)cccc12 [Dansyl-WNR-amide] (Dansyl-Trp-Asn-Arg-NH2)
2 = CN(C)c1cccc2c(S(=O)(=O)N[C@@H](CCCNC(=N)N)C(=O)N[C@@H](CCC(=O)O)C(=O)N[C@@H](CCCNC(=N)N)C(N)=O)cccc12 [Dansyl-RER-amide] (Dansyl-Arg-Glu-Arg-NH2)
3 = CC[C@H](C)[C@H](NS(=O)(=O)c1cccc2c(N(C)C)cccc12)C(=O)N[C@@H](CCC(=O)O)C(=O)N[C@@H](CCCNC(=N)N)C(N)=O [Dansyl-IER-amide] (Dansyl-Ile-Glu-Arg-NH2)
4 = CN(C)c1cccc2c(S(=O)(=O)N[C@@H](CCCCN)C(=O)N[C@@H](CCC(N)=O)C(=O)N[C@@H](CCCNC(=N)N)C(N)=O)cccc12 [Dansyl-KQR-amide] (Dansyl-Lys-Gln-Arg-NH2)
Please list these compounds in decreasing order of Relative Binding Index (RBI). Please respond by ranking the labels in the order requested.
4, 1, 2, 3

* * *

System: receptor labeled by the radioiodinated analogue of 1 (4, [125I]-YLFQPQRF-NH2); neuropeptide FF receptor
Assay: Competitive radioligand binding against 4 ([125I]Y8F-amide)
Conditions: mixture-based positional scanning; difference from averaged radioligand displacement of whole library (0); about 80 a.u. = 10-fold change in Ki
Peptide text beside a SMILES is read from it. * marks the point of attachment. Dansyl = CN(C)c1cccc2c(S(=O)(=O)*)cccc12
measurement_label: Relative Binding Index (RBI) (a.u.)

Previously resolved entries follow.
C[C@H](NC(=O)[C@H](Cc1c[nH]cn1)NS(=O)(=O)c1cccc2c(N(C)C)cccc12)C(=O)N[C@@H](CCCNC(=N)N)C(N)=O [Dansyl-HAR-amide] (Dansyl-His-Ala-Arg-NH2) ... −32
CN(C)c1cccc2c(S(=O)(=O)N[C@@H](CCC(=O)O)C(=O)NCC(=O)N[C@@H](CCCNC(=N)N)C(N)=O)cccc12 [Dansyl-EGR-amide] (Dansyl-Glu-Gly-Arg-NH2) ... 22
CN(C)c1cccc2c(S(=O)(=O)N[C@@H](CCC(N)=O)C(=O)N[C@@H](CCCCN)C(=O)N[C@@H](CCCNC(=N)N)C(N)=O)cccc12 [Dansyl-QKR-amide] (Dansyl-Gln-Lys-Arg-NH2) ... 19

P = CN(C)c1cccc2c(S(=O)(=O)NCC(=O)N[C@@H](Cc3ccc(O)cc3)C(=O)N[C@@H](CCCNC(=N)N)C(N)=O)cccc12 [Dansyl-GYR-amide] (Dansyl-Gly-Tyr-Arg-NH2)
Q = C[C@H](NC(=O)[C@H](CCC(N)=O)NS(=O)(=O)c1cccc2c(N(C)C)cccc12)C(=O)N[C@@H](CCCNC(=N)N)C(N)=O [Dansyl-QAR-amide] (Dansyl-Gln-Ala-Arg-NH2)
Between P and Q , which one shows the larger Relative Binding Index (RBI) value? Selection: enter the item's label.
P
(P: 24 a.u., Q: −28 a.u.)

* * *

Test system: receptor labeled by the radioiodinated analogue of 1 (4, [125I]-YLFQPQRF-NH2); neuropeptide FF receptor
Test: Competitive radioligand binding against 4 ([125I]Y8F-amide)
Settings: mixture-based positional scanning; difference from averaged radioligand displacement of whole library (0); about 80 a.u. = 10-fold change in Ki
Peptide text beside a SMILES is read from it. * marks the point of attachment. Dansyl = CN(C)c1cccc2c(S(=O)(=O)*)cccc12
measurement_label: Relative Binding Index (RBI) (a.u.)

Previously resolved entries follow.
CN(C)c1cccc2c(S(=O)(=O)N[C@@H](CCCCN)C(=O)N[C@@H](Cc3c[nH]c4ccccc34)C(=O)N[C@@H](CCCNC(=N)N)C(N)=O)cccc12 [Dansyl-KWR-amide] (Dansyl-Lys-Trp-Arg-NH2) ... 34
CN(C)c1cccc2c(S(=O)(=O)N[C@@H](CC(=O)O)C(=O)N[C@@H](CCCCN)C(=O)N[C@@H](CCCNC(=N)N)C(N)=O)cccc12 [Dansyl-DKR-amide] (Dansyl-Asp-Lys-Arg-NH2) ... −8
CC(C)C[C@H](NS(=O)(=O)c1cccc2c(N(C)C)cccc12)C(=O)N[C@@H](Cc1c[nH]c2ccccc12)C(=O)N[C@@H](CCCNC(=N)N)C(N)=O [Dansyl-LWR-amide] (Dansyl-Leu-Trp-Arg-NH2) ... −23

1 = CSCC[C@H](NS(=O)(=O)c1cccc2c(N(C)C)cccc12)C(=O)N[C@@H](CCCNC(=N)N)C(=O)N[C@@H](CCCNC(=N)N)C(N)=O [Dansyl-MRR-amide] (Dansyl-Met-Arg-Arg-NH2)
2 = C[C@@H](O)[C@H](NC(=O)[C@@H](NS(=O)(=O)c1cccc2c(N(C)C)cccc12)[C@@H](C)O)C(=O)N[C@@H](CCCNC(=N)N)C(N)=O [Dansyl-TTR-amide] (Dansyl-Thr-Thr-Arg-NH2)
Between 1 and 2 , which one shows the larger Relative Binding Index (RBI) value? Selection: enter the item's label.
2

* * *

System: receptor labeled by the radioiodinated analogue of 1 (4, [125I]-YLFQPQRF-NH2); neuropeptide FF receptor
Experiment: Competitive radioligand binding against 4 ([125I]Y8F-amide)
Conditions: mixture-based positional scanning; difference from averaged radioligand displacement of whole library (0); about 80 a.u. = 10-fold change in Ki
Square brackets hold non-standard residues; d marks the D form. Peptide text beside a SMILES is read from it. * marks the point of attachment. ξ: configuration not given here. Dansyl = CN(C)c1cccc2c(S(=O)(=O)*)cccc12; ξL = CC(C)CC(N)C(=O)O
measurement_label: Relative Binding Index (RBI) (a.u.)

CC(C)C[C@H](NC(=O)[C@H](CCC(N)=O)NS(=O)(=O)c1cccc2c(N(C)C)cccc12)C(=O)N[C@@H](CCCNC(=N)N)C(N)=O [Dansyl-QLR-amide] (Dansyl-Gln-Leu-Arg-NH2) ... 13

P = CC(C)CC(NC(=O)[C@H](C)NS(=O)(=O)c1cccc2c(N(C)C)cccc12)C(=O)N[C@@H](CCCNC(=N)N)C(N)=O (stereo partly drawn) [Dansyl-ALR-amide] (Dansyl-Ala-[ξL]-Arg-NH2)
Q = CC(C)C[C@H](NC(=O)[C@H](CC(C)C)NS(=O)(=O)c1cccc2c(N(C)C)cccc12)C(=O)N[C@@H](CCCNC(=N)N)C(N)=O [Dansyl-LLR-amide]
Between P and Q , which one shows the larger Relative Binding Index (RBI) value? Selection: enter the item's label.
P
(P: 4 a.u., Q: −40 a.u.)

* * *

System: receptor labeled by the radioiodinated analogue of 1 (4, [125I]-YLFQPQRF-NH2); neuropeptide FF receptor
Experiment: Competitive radioligand binding against 4 ([125I]Y8F-amide)
Conditions: mixture-based positional scanning; difference from averaged radioligand displacement of whole library (0); about 80 a.u. = 10-fold change in Ki
Peptide text beside a SMILES is read from it. * marks the point of attachment. Dansyl = CN(C)c1cccc2c(S(=O)(=O)*)cccc12
measurement_label: Relative Binding Index (RBI) (a.u.)

CN(C)c1cccc2c(S(=O)(=O)N3CCC[C@H]3C(=O)N[C@@H](CCCCN)C(=O)N[C@@H](CCCNC(=N)N)C(N)=O)cccc12 [Dansyl-PKR-amide] (Dansyl-Pro-Lys-Arg-NH2) ... −50
CN(C)c1cccc2c(S(=O)(=O)N[C@@H](Cc3ccc(O)cc3)C(=O)N[C@@H](CCC(=O)O)C(=O)N[C@@H](CCCNC(=N)N)C(N)=O)cccc12 [Dansyl-YER-amide] (Dansyl-Tyr-Glu-Arg-NH2) ... 7
CN(C)c1cccc2c(S(=O)(=O)N[C@@H](Cc3cnc[nH]3)C(=O)N[C@@H](Cc3ccccc3)C(=O)N[C@@H](CCCNC(=N)N)C(N)=O)cccc12 [Dansyl-HFR-amide] (Dansyl-His-Phe-Arg-NH2) ... 15
CN(C)c1cccc2c(S(=O)(=O)N[C@@H](CCC(N)=O)C(=O)NCC(=O)N[C@@H](CCCNC(=N)N)C(N)=O)cccc12 [Dansyl-QGR-amide] (Dansyl-Gln-Gly-Arg-NH2) ... 27
CC(C)C[C@H](NC(=O)[C@@H]1CCCN1S(=O)(=O)c1cccc2c(N(C)C)cccc12)C(=O)N[C@@H](CCCNC(=N)N)C(N)=O [Dansyl-PLR-amide] (Dansyl-Pro-Leu-Arg-NH2) ... −56
CC(C)[C@H](NS(=O)(=O)c1cccc2c(N(C)C)cccc12)C(=O)N[C@@H](CCCCN)C(=O)N[C@@H](CCCNC(=N)N)C(N)=O [Dansyl-VKR-amide] (Dansyl-Val-Lys-Arg-NH2) ... −7
CN(C)c1cccc2c(S(=O)(=O)NCC(=O)N3CCC[C@H]3C(=O)N[C@@H](CCCNC(=N)N)C(N)=O)cccc12 [Dansyl-GPR-amide] (Dansyl-Gly-Pro-Arg-NH2) ... 28
CC(C)C[C@H](NC(=O)[C@@H](NS(=O)(=O)c1cccc2c(N(C)C)cccc12)[C@@H](C)O)C(=O)N[C@@H](CCCNC(=N)N)C(N)=O [Dansyl-TLR-amide] (Dansyl-Thr-Leu-Arg-NH2) ... −17

A = CC(C)[C@H](NC(=O)[C@H](CCC(N)=O)NS(=O)(=O)c1cccc2c(N(C)C)cccc12)C(=O)N[C@@H](CCCNC(=N)N)C(N)=O [Dansyl-QVR-amide] (Dansyl-Gln-Val-Arg-NH2)
B = CN(C)c1cccc2c(S(=O)(=O)N[C@@H](CC(=O)O)C(=O)N[C@@H](CCC(=O)O)C(=O)N[C@@H](CCCNC(=N)N)C(N)=O)cccc12 [Dansyl-DER-amide] (Dansyl-Asp-Glu-Arg-NH2)
C = CC[C@H](C)[C@H](NS(=O)(=O)c1cccc2c(N(C)C)cccc12)C(=O)N[C@@H](CO)C(=O)N[C@@H](CCCNC(=N)N)C(N)=O [Dansyl-ISR-amide] (Dansyl-Ile-Ser-Arg-NH2)
Put these in order: smallest Relative Binding Index (RBI) first, largest last. Please respond by ranking the labels in the order requested.
B, C, A

I = CN(C)c1cccc2c(S(=O)(=O)N[C@@H](CO)C(=O)N[C@@H](Cc3ccccc3)C(=O)N[C@@H](CCCNC(=N)N)C(N)=O)cccc12 [Dansyl-SFR-amide] (Dansyl-Ser-Phe-Arg-NH2)
II = CN(C)c1cccc2c(S(=O)(=O)N[C@@H](CO)C(=O)N[C@@H](CO)C(=O)N[C@@H](CCCNC(=N)N)C(N)=O)cccc12 [Dansyl-SSR-amide] (Dansyl-Ser-Ser-Arg-NH2)
III = CN(C)c1cccc2c(S(=O)(=O)N[C@@H](CC(=O)O)C(=O)N[C@@H](Cc3c[nH]cn3)C(=O)N[C@@H](CCCNC(=N)N)C(N)=O)cccc12 [Dansyl-DHR-amide] (Dansyl-Asp-His-Arg-NH2)
IV = CSCC[C@H](NS(=O)(=O)c1cccc2c(N(C)C)cccc12)C(=O)N[C@@H](C)C(=O)N[C@@H](CCCNC(=N)N)C(N)=O [Dansyl-MAR-amide] (Dansyl-Met-Ala-Arg-NH2)
Put these in order: smallest Relative Binding Index (RBI) first, largest last. Please respond by ranking the labels in the order requested.
IV, III, I, II

P = CN(C)c1cccc2c(S(=O)(=O)N[C@@H](CCC(=O)O)C(=O)N[C@@H](CCCCN)C(=O)N[C@@H](CCCNC(=N)N)C(N)=O)cccc12 [Dansyl-EKR-amide] (Dansyl-Glu-Lys-Arg-NH2)
Q = CN(C)c1cccc2c(S(=O)(=O)N[C@@H](Cc3ccc(O)cc3)C(=O)N[C@@H](CO)C(=O)N[C@@H](CCCNC(=N)N)C(N)=O)cccc12 [Dansyl-YSR-amide] (Dansyl-Tyr-Ser-Arg-NH2)
Please indicate which has the smaller reported Relative Binding Index (RBI): P , or Q . Selection: enter the item's label.
P

A = CN(C)c1cccc2c(S(=O)(=O)N[C@@H](CCCCN)C(=O)N3CCC[C@H]3C(=O)N[C@@H](CCCNC(=N)N)C(N)=O)cccc12 [Dansyl-KPR-amide] (Dansyl-Lys-Pro-Arg-NH2)
B = CN(C)c1cccc2c(S(=O)(=O)N[C@@H](Cc3ccccc3)C(=O)N[C@@H](Cc3ccccc3)C(=O)N[C@@H](CCCNC(=N)N)C(N)=O)cccc12 [Dansyl-FFR-amide] (Dansyl-Phe-Phe-Arg-NH2)
Please indicate which has the smaller reported Relative Binding Index (RBI): A , or B . Selection: enter the item's label.
B
(B: 8 a.u., A: 28 a.u.)
